Test system: HeLa
Assay: Cytotoxicity against human HeLa cells
Format: functional, cell-based
Metric Name: IC50
# answer = value followed by unit

Task: Consider the compound COc1cc(-c2nn[nH]c2-c2ccc(N)cc2)cc(OC)c1OC and give its recorded IC50.
Result: 5 µM

###

System: SK-OV-3
Test: Cytotoxicity against human SKOV3 cells after 48 hrs by MTS assay
Assay type: functional, cell-based
Settings: SK-OV-3, 48 h
Metric Name: IC50 (nM)
Reply with just the number (in nM).

Task: Consider the compound COc1ccc(/C=C\c2cc(OC)c(OC)c(OC)c2)cc1O and give its recorded IC50.
Result: 1.7

Cited source: ChEMBL document CHEMBL1944536
